PROTOCOL_SUMMARY: NCI Yeast Anticancer Drug Screen. Data for the bub3 strain (AID 167)
COND: S. cerevisiae bub3 mutant strain, at 100.0 µM
The panel holds about 79,000 compounds, 15% with a hit somewhere; the sample as a whole holds those more often. The source made the active and inactive calls. Cut-off read from the data, not from the text of the source: active = growth inhibition above about 70%; inactive = the rest.
Pick one: active, inactive

Below, 3 compounds whose answers are already recorded.
* Cc1nc2c(ncn2CCO)c(=O)[nH]1 | inactive
* COc1ccc(N=N/C(=N\NC(=O)c2cc(Br)ccc2O)c2ccc(N(CCC#N)CCC#N)cc2OC)cc1 | inactive
* O=C1C=CC(=O)N1c1ccc(I)cc1 | active

Read the next record carefully.
# input Recorded test call requested for `Oc1ccccc1N=Cc1ccc(Cl)cc1`
# output active

----------
PROTOCOL_SUMMARY: NCI Yeast Anticancer Drug Screen. Data for the mlh1 rad18 strain (AID 175)
COND: S. cerevisiae mlh1 rad18 strain growth inhibition; at 50.0 µM (retest, dose inferred, filed as 5.0)
About 79,000 compounds went through this panel and 15% of them were active in at least one assay; those are over-represented in the sample as a whole. Active and inactive are the calls of the source. No stated cut-off is given here; in the data, active means growth inhibition above about 70%; inactive means the rest.
Allowed answers: Yes for active, No for inactive

• CCCCCC#CCOC(=O)C(=[N+]=[N-])P(=O)(c1ccccc1)c1ccccc1 = Yes
• COc1cccc(C(c2cc3c(cc2O)OCO3)N2CCOCC2)c1OC (configuration not stated) = Yes
• CCOC(=O)[C@]1(Br)CC[C@@]1(Br)C(=O)OCC = Yes

# input Please state the recorded outcome for this compound: `Oc1ccc(C=Nc2ccccc2O)cc1`
# output Yes

# input Status in this test for `CCc1[nH]nc(C(N)=O)c1N=NN(C)C` ?
# output No

# input How did this test come out for `Nc1nc(N)c2cc(Sc3ccc4ccccc4c3)ccc2n1` ?
# output Yes

# input Please let me know the test result on file for `O=C(CNS(=O)(=O)Cc1ccccc1)NNc1ccccc1` .
# output Yes

----------
# growth inhibition listing for each entry below
PROTOCOL_SUMMARY: NCI Yeast Anticancer Drug Screen. Data for the wt1 strain (AID 149);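 note: 0% = growth of vehicle-treated wt1 cultures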
COND: S. cerevisiae wt1 strain (SPY 50644) growth inhibition; at 3.7 µM; active compounds read high
This is part of a sample that, as a whole, favours compounds with a hit. Of some 79,000 tested, about 15% had one in any assay.
Output spec: scalar in %, unitless text.

Solved entries:
• COC(=O)c1cccc(C)c1C(=O)c1c(C)cc(C)cc1C = 1
• O=C1NC(c2c(Cl)cccc2Cl)Nc2ccccc21 (stereo unspecified) = -26
• CCN(CC)CC(O)C1CCC(c2ccccc2)CC1 (stereo unspecified) = 10
• O=S(=O)(N/N=C/c1cccc(Cl)c1)c1ccccc1 = 4
• CCc1nc(N)nc(N)c1-c1ccc(NCCCCCCN)c([N+](=O)[O-])c1 = -1

# input Entry `O=C1C=CC(=O)N1c1ccc(I)cc1` needs its growth inhibition filled in; supply it.
# output 33

----------
PROTOCOL_SUMMARY: NCI Yeast Anticancer Drug Screen. Data for the rad52 strain (AID 147);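 note: 0% = growth of vehicle-treated control cultures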
COND: S. cerevisiae rad52 mutant growth inhibition; at 100.0 µM; active compounds read high
Compounds without any hit were thinned out: in the full panel of roughly 79,000, 15% have a hit.
# reported growth inhibition; entries follow
Answer with a number only, understood to be in %.

These recorded examples may help you get a feel for the data.
- COc1cc(N(C)C)ccc1/C=C\c1ccnc2ccccc12: -10
- CC(=O)C1(O)Cc2c(O)c3c(c(O)c2C(OC2CC(N)C(O)C(C)O2)C1)C(=O)c1ccccc1C3=O (stereo unspecified): 97
- Cc1cc(N=C2C=CC(=[N+](C)C)C=C2)c(N)cc1N: 72
- COc1ccc(/C(C#N)=C/c2ccc(OC)c(OC)c2)cc1: 21

# input Give reported growth inhibition value for `Nc1ccc2c(=S)c3ccccc3[nH]c2c1`
# output 71

# input For the compound `c1ccc2c(c1)ccc1c3ccncc3ccc21` , give its reported growth inhibition.
# output 95

Cited source: PubChem BioAssay (NCI)
